Reference source for all entries: PubChem BioAssay (Tox21)

assay: qHTS RealTime-Glo MT Cell Viability Assay in HepG2 cells - 0 hour (AID 1224889); conditions: RealTime-Glo luminescence; series mostly up to 76.8 µM; note: nearly all actives have a fitted effect of over 50% in size
Results filed as inconclusive are left out. Activity calls are given as the source filed them. Calls come from the whole dose curve; as a rule, active = well fitted cell-killing curve with a large enough effect in the repeat runs; inconclusive = weak or mixed curves, or effect the other way; inactive = flat fitted curve, though single readings scatter.
measuredQuantity: outcome

[[record]]
entrysmiles = "NCCNCCNCCNCCN"
measuredresult = "inactive"

[[record]]
entrysmiles = "CC(C)n1c(/C=C/[C@@H](O)C[C@@H](O)CC(=O)O)c(-c2ccc(F)cc2)c2ccccc21"
measuredresult = "inactive"

[[record]]
entrysmiles = "COCC(=O)O"
measuredresult = "inactive"


----------
Target: Glucocorticoid receptor (Homo sapiens)
Assay: qHTS assay to identify small molecule antagonists of the glucocorticoid receptor (GR) signaling pathway (AID 720692)
Settings: GR-bla HeLa, beta-lactamase FRET ratio, dexamethasone-stimulated, 18 h; series mostly up to 58.5 µM
Source text: U.S. Tox21 Program National Center for Advancing Translational Sciences [NCATS] NIH Chemical Genomics Center [NCGC] U.S. Environmental Protection Agency [EPA] National Institutes of Environmental Health Sciences [NIEHS] National Toxicology Program [NTP] U.S. Food and Drug Administration [FDA] […] The activation of the reporter gene under culture conditions can be detected by fluorescence intensity. […]
Records with an inconclusive call do not appear. Calls of active or inactive are those of the source. Calls come from the whole dose curve; as a rule, active = well fitted inhibition curve with a large enough effect in the signal ratio in the repeat runs (not every such curve was filed as active); inconclusive = weak or mixed curves, or effect the other way; inactive = no such curve, though single readings can be large or run the other way; the % refers to the signal ratio.
Reply using exactly one outcome from yes for active, no for inactive

Answered cases to consult:
[[record]]
molecule = "CCCCC(CC)COC(C)=O (stereo not drawn)"
discretelabel = "no"

[[record]]
molecule = "O=C1O[C@H](CO)[C@@H](O)[C@H](O)[C@H]1O"
discretelabel = "no"

[[record]]
molecule = "Cc1ccc(C)c(C)c1"
discretelabel = "no"

[[record]]
molecule = "CC(C)(CO)COC(=O)C(C)(C)CO"
discretelabel = "no"

[[record]]
molecule = "CC1CC(OC(=O)c2ccccc2O)CC(C)(C)C1 (stereo not drawn)"
discretelabel = "no"

[[record]]
molecule = "CCCCCCC(C)(C)S"
discretelabel = "no"

[[record]]
molecule = "CCOC(=O)/C=C\\C(=O)OCC"
discretelabel = "no"

[[record]]
molecule = "CC(=O)Nc1ccc(C(=O)O)cc1"
discretelabel = "no"

[[record]]
molecule = "CCOC(=O)[C@H](CCc1ccccc1)N[C@@H](C)C(=O)N1Cc2ccccc2C[C@H]1C(=O)O"
discretelabel = "no"

[[record]]
molecule = "CCCCC(CC)C(=O)OCCOCCOCCOC(=O)C(CC)CCCC (stereo not drawn)"
discretelabel = "no"


input: Test call, this molecule: "CCCCNC(N)=O"
output: no

input: Test call, this molecule: "CCc1ccccc1O"
output: no
